Listing of recorded koff by entry.
Target: T1, hu-M-IL1RAP construct, positions S21-T367 (extracellular domain of the membrane form of human IL1RAP) (human, UniProt Q9NPH3 21-367)
T1 construct: Biotinylated when captured on the Biacore chip
T1 sequence: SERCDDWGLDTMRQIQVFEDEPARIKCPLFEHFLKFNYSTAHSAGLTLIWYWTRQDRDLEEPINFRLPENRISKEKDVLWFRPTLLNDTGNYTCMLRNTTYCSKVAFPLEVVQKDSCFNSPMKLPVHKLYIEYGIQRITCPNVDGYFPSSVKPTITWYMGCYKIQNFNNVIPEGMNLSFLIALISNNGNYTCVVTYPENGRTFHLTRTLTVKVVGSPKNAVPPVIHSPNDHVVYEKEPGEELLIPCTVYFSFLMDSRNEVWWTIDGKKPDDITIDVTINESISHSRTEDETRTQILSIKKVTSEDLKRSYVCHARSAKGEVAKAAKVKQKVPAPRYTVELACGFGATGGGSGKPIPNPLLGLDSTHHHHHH
Assay: SPR, Fab analyte, 25 C
Number first, unit second: that is the form wanted.

Entry K17 Fab (VL A51Y/W92K) (Fab, V domains shown, Fab with 8xHis tag) VH: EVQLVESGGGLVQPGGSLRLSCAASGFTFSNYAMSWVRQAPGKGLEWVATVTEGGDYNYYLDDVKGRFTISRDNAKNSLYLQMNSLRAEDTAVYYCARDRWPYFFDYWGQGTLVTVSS VL: DIQMTQSPSSLSASVGDRVTITCRASENIYSNLAWYQQKPGKSPKLLVYGYKNLADGVPSRFSGSGSGTDYTLTISSLQPEDFATYYCQHFKTTPRTFGGGTKVEIK has what koff? 3.58e-05 s⁻¹

Next:
Using the record for K11 Fab (VL A51R/K52G) (Fab, V domains shown, Fab with 8xHis tag) VH: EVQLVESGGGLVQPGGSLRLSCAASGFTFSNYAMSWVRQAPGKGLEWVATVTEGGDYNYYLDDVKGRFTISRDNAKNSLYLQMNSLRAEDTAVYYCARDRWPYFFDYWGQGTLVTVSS VL: DIQMTQSPSSLSASVGDRVTITCRASENIYSNLAWYQQKPGKSPKLLVYGRGNLADGVPSRFSGSGSGTDYTLTISSLQPEDFATYYCQHFWTTPRTFGGGTKVEIK , report its koff. 0.000102 s⁻¹

The reported numbers originate from patent US20260015426A1.
